For each of the compounds below, state its pEC50.
ASSAYED SYSTEM: human Somatostatin 4 receptor (SSTR4) (Homo sapiens (Human), UniProt P31391)
Sequence (P31391 whole entry): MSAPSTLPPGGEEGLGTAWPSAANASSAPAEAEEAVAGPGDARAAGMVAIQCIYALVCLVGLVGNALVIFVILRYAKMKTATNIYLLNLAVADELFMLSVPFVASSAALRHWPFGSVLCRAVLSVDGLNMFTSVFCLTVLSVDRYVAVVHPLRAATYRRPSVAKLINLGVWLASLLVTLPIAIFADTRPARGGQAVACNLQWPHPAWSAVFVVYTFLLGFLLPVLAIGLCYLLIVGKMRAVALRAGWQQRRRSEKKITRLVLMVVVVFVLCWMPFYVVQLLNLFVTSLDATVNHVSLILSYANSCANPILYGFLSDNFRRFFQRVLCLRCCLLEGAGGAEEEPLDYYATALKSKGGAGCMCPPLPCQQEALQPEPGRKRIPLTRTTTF
TEST DETAILS: cAMP assay with human somatostatin 4 receptor (hSSTR4 expressing H4 cells)
Type: cell-based
APPLIED CONDITIONS: cAMP assay, read-out: SSTR4 agonism EC50
Answers are plain numbers, as −log10 of the molar value.

Recorded pEC50, per entry:
{"STRUCTURE NOTATION": "CC(C)(NC(=O)[C@H]1[C@@H]2CNC[C@@H]21)c1ncc2c(OC(F)(F)F)cccn12", "pEC50": 7.58}
{"STRUCTURE NOTATION": "Cc1cccc2c(C(C)(C)NC(=O)[C@H]3[C@@H]4CNC[C@@H]43)ncnc12", "pEC50": 9.10}

Continue with the next compound.
Input line: I am curious: what pEC50 value has been reported for CC(C)(COc1nnccc1C(F)(F)F)NC(=O)[C@H]1[C@@H]2CNC[C@@H]21 ?
Output line: 7.66

###

ASSAYED SYSTEM: human SSTR4 (Homo sapiens (Human), UniProt P31391)
TEST DETAILS: Radioligand binding assay, CHO cell membranes expressing recombinant human SSTR4
For each of the compounds below, state its pKi.
Numbers only, as −log10 of the molar value.

Recorded pKi, per entry:
{"STRUCTURE NOTATION": "CC(C)(COc1cnccc1C(F)(F)F)NC(=O)[C@H]1[C@@H]2CNC[C@@H]21", "pKi": 7.16}
{"STRUCTURE NOTATION": "Cc1nc(C(C)(C)NC(=O)[C@H]2[C@@H]3CNC[C@@H]32)c2cccc(C)c2n1", "pKi": 7.49}
{"STRUCTURE NOTATION": "CC(C)(NC(=O)[C@H]1[C@@H]2CNC[C@@H]21)c1nc2ccc(Cl)cc2[nH]1.Cl", "pKi": 6.97}
{"STRUCTURE NOTATION": "Cc1cccnc1C(C)(C)NC(=O)[C@H]1[C@@H]2CNC[C@@H]21.Cl.Cl", "pKi": 6.94}
{"STRUCTURE NOTATION": "Cc1nc(C(C)(C)NC(=O)[C@H]2[C@@H]3CNC[C@@H]32)c2ccccc2n1", "pKi": 7.15}

# map each compound to its pKi
1. Cc1cccn2c(C(C)(C)NC(=O)[C@H]3[C@@H]4CNC[C@@H]43)nc(C3CC3)c12
2. Cc1cccn2c(C(C)(C)NC(=O)[C@H]3[C@@H]4CNC[C@@H]43)ncc12.Cl
3. CC(C)(NC(=O)[C@H]1[C@@H]2CNC[C@@H]21)c1ccnc2ccccc12.Cl
4. CC(C)(NC(=O)[C@H]1[C@@H]2CNC[C@@H]21)c1nccc2ccccc12.Cl
5. CC(C)(NC(=O)[C@H]1[C@@H]2CNC[C@@H]21)c1noc2c(F)cccc12

Output line:
[8.12, 8.52, 7.97, 8.54, 7.34]

# map each compound to its pKi
1. Cn1nc(C(C)(C)NC(=O)[C@H]2[C@@H]3CNC[C@@H]32)c2ccccc21
2. Cc1cccnc1OCC(C)(C)NC(=O)[C@H]1[C@@H]2CNC[C@@H]21
3. CC(C)(NC(=O)[C@H]1[C@@H]2CNC[C@@H]21)c1n[nH]c2ccccc12
4. Cc1ncc(C(C)(C)NC(=O)[C@H]2[C@@H]3CNC[C@@H]32)c2ccccc12
5. Cc1cc2ccccc2c(C(C)(C)NC(=O)[C@H]2[C@@H]3CNC[C@@H]32)n1.Cl
6. CC(C)(COc1nccc2ccccc12)NC(=O)[C@H]1[C@@H]2CNC[C@@H]21
7. Cc1cc2cccnc2c(C(C)(C)NC(=O)[C@H]2[C@@H]3CNC[C@@H]32)n1
8. Cc1ccccc1OCC(C)(C)NC(=O)[C@H]1[C@@H]2CNC[C@@H]21.Cl

Output line:
1: 8.35; 2: 7.40; 3: 7.80; 4: 8.92; 5: 8.43; 6: 7.00; 7: 7.01; 8: 7.43
